Sourced from patent US8987335B2

# target.of.assay: LSD1 (Homo sapiens (Human))
pIC50: −log10 of the molar value.
measure: pIC50

1. C/C(=N\NC(=O)c1cccc(S(=O)(=O)N2CCOCC2)c1)c1cccc2ccccc12 [Compound 10] : < 5.00

---

# target.of.assay: MAO B (Homo sapiens (Human))
# Sequence (P27338 whole entry): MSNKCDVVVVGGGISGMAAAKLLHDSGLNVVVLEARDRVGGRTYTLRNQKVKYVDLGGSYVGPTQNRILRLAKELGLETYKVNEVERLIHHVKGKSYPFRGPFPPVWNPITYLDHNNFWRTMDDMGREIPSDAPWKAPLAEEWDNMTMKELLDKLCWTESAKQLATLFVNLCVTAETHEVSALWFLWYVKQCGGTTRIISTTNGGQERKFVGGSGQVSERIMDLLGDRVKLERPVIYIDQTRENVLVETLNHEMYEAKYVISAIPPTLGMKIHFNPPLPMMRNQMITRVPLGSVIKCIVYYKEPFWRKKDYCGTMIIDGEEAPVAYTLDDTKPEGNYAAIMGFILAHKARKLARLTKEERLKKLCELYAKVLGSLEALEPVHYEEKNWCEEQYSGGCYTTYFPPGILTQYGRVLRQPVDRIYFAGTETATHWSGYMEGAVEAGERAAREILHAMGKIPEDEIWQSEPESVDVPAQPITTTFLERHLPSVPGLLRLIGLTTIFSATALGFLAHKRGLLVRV
pIC50: −log10 of the molar value.
measure: pIC50

1. C/C(=N\NC(=O)c1cccc(S(=O)(=O)N2CCOCC2)c1)c1cc(Cl)ccc1O : < 3.52

---

# target.of.assay: LSD1 (Homo sapiens (Human), UniProt O60341)
# protocol.notes: LSD1 Histone Demethylase Assay (LSD1 Inhibitor Screening Assay Kit)
# Type: biochemical
# conditions.used: SAR discussion
measure: LSD1 biochemical activity (in words)

1. C/C(=N\NC(=O)c1cccc(S(=O)(=O)N2CCOCC2)c1)c1cccc2ccccc12 : lower activity
2. CCN(CC)S(=O)(=O)c1ccc(F)c(C(=O)NNC(=O)c2ccc(C)cc2)c1 : lower activity

---

# target.of.assay: MAO A (Homo sapiens (Human), UniProt P21397)
# Sequence (P21397 whole entry): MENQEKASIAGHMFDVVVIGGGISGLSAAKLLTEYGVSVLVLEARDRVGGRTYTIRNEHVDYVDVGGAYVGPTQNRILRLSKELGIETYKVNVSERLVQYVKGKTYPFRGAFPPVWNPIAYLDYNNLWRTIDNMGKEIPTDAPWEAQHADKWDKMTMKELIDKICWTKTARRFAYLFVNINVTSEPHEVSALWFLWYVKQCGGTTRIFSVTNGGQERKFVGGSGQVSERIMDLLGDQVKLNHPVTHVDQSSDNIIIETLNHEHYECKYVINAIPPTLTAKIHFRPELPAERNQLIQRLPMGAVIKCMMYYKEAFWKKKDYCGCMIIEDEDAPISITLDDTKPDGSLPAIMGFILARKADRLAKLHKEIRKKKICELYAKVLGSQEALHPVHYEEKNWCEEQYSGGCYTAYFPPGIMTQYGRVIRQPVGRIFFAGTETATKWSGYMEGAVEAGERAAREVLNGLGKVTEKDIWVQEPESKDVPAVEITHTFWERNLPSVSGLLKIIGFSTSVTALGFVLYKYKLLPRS
measure: IC50

1) C/C(=N\NC(=O)c1cccc(S(=O)(=O)N2CCOCC2)c1)c1cc(Cl)ccc1O [Compound 12] : > 300 µM
